This collection of values is drawn from ChEMBL document CHEMBL4689842.

I'd be grateful if you could share measured Population Pyknosed Nuclei (%) for these entries.
Tested on: HEK-293T
Test: Multiplex assay against HEK293T
Type: toxicity, cell-based
Settings: human, 48 h, 1 µM, compound concentration 1 uM, replicate 1
Provide the reading as a plain figure in %.

Problem: Recall and state the measured Population Pyknosed Nuclei (%) for CN1C2CCC1CC(OC(c1ccc(F)cc1)c1ccc(F)cc1)C2.Cl (stereo not drawn) .
Solution: 58

Problem: Recall and state the measured Population Pyknosed Nuclei (%) for `O=C1N/C(=N/c2ccccc2F)S/C1=C\c1ccc(C(=O)O)cc1` .
Solution: 36

Problem: Recall and state the measured Population Pyknosed Nuclei (%) for `Cc1ccc(C(=O)Nc2cccc(C(F)(F)F)c2)cc1Nc1nc(-c2cccnc2)nc2c1cnn2C` .
Solution: 33

* * *

I'd be grateful if you could share measured Population Mitotic Cells (%) for these entries.
Tested on: HEK-293T
Experiment: Multiplex assay against HEK293T
Format: toxicity, cell-based
Details: human, 12 h, 10 µM, compound concentration 10 uM, replicate 2
// return the numeric value with its unit appended

Problem: Recall and state the measured Population Mitotic Cells (%) for `CCc1cccc(CC)c1NC(=O)c1nn(C)c2c1CCc1cnc(Nc3ccc(C(=O)NC4CCN(C)CC4)cc3OC(F)(F)F)nc1-2` .
Solution: 26%

Problem: Recall and state the measured Population Mitotic Cells (%) for `CCCn1c(=O)c2[nH]c(-c3cnn(Cc4cccc(C(F)(F)F)c4)c3)nc2n(CC)c1=O` .
Solution: 91%

Problem: Recall and state the measured Population Mitotic Cells (%) for `O=C1NC(=O)C(c2cnc3ccccn23)=C1c1cn2c3c(cc(F)cc13)CN(C(=O)N1CCCCC1)CC2` .
Solution: 41%

Problem: Recall and state the measured Population Mitotic Cells (%) for `CCOc1cc2ncc(C#N)c(Nc3ccc(OCc4ccccn4)c(Cl)c3)c2cc1NC(=O)/C=C/CN(C)C` .
Solution: 66%

* * *

Test system: Fibroblast
Test: Incucyte cell viability with human fibroblast; note: filed as whole numbers so only -1 and 0 and 1 occur
Type: toxicity, cell-based
Conditions: 6 h, 10 µM, compound concentration 10 uM, replicate number 2, timepoint 6 hours
I'd be grateful if you could share measured Growth Rate for these entries.
Give only the figure.

Problem: Recall and state the measured Growth Rate for `CC(C)NC(=O)c1ccc(C#Cc2ccncc2)cn1` .
Solution: 0

Problem: Recall and state the measured Growth Rate for CS(=O)(=O)NCC[C@H](NC(=O)c1cncc2c1cnn2-c1ccc(F)cc1)c1ccnc(S(C)(=O)=O)c1 [BI 9307] .
Solution: 0

Problem: Recall and state the measured Growth Rate for O=S(=O)(NC1CCC(c2cc(F)ccc2F)(S(=O)(=O)c2ccc(Cl)cc2)CC1)C(F)(F)F (stereo not given) [MRK-560] .
Solution: 1

Problem: Recall and state the measured Growth Rate for Cc1nc(NC(=O)N2CCC[C@H]2C(N)=O)sc1-c1ccnc(C(C)(C)C(F)(F)F)c1 [ALPELISIB] .
Solution: 1

Problem: Recall and state the measured Growth Rate for `CNC(=O)c1ccc(Nc2nc(OC3CCCC3)c3c(-c4ccc5nc(C)oc5c4)c[nH]c3n2)c(OC)c1` .
Solution: 0

Problem: Recall and state the measured Growth Rate for `O=c1ccn([C@@H]2O[C@H](COP(=O)([O-])OP(=O)([O-])O)[C@@H](O)[C@H]2O)c(=O)[nH]1.[Na+].[Na+]` .
Solution: 1

Problem: Recall and state the measured Growth Rate for CN(C)C(=O)c1cc2cnc(Nc3ccc(N4CCNCC4)cn3)nc2n1C1CCCC1 [RIBOCICLIB] .
Solution: 0

Problem: Recall and state the measured Growth Rate for Cc1oncc1C(=O)Nc1ccc(C(F)(F)F)cc1 [LEFLUNOMIDE] .
Solution: 0

Problem: Recall and state the measured Growth Rate for COCC(=O)NC/C=C/c1ccc2ncnc(Nc3ccc(Oc4ccc(C)nc4)c(C)c3)c2c1 [CP-724714] .
Solution: 1

Problem: Recall and state the measured Growth Rate for `Cc1cc([C@@H](C)Nc2cccc(-c3cc(C)c(C(=O)N[C@@H](C)C(=O)O)c(C)c3)c2)ccc1Cl` .
Solution: 0

Problem: Recall and state the measured Growth Rate for COc1ccc(-c2ccc3c(N4CCOCC4)nc(N4C[C@@H](C)O[C@@H](C)C4)nc3n2)cc1CO [Ku-0063794] .
Solution: 1

Problem: Recall and state the measured Growth Rate for CN1C2CCC1CC(OC(c1ccc(F)cc1)c1ccc(F)cc1)C2.Cl (stereo not given) .
Solution: 0

Problem: Recall and state the measured Growth Rate for `CCCCCCCCCCCCCCCCOC[C@H](COP(=O)([O-])OCC[N+](C)(C)C)OC(C)=O` .
Solution: 0

Problem: Recall and state the measured Growth Rate for `COc1ccc(S(=O)(=O)N(CCO)c2ccccc2CN(C)C/C=C/c2ccc(Cl)cc2)cc1.O=P(O)(O)O` .
Solution: 1

Problem: Recall and state the measured Growth Rate for `C[C@@H](c1cccc(C#N)c1)n1cc(Cl)cc(C(N)=O)c1=N.Cl` .
Solution: 0

Problem: Recall and state the measured Growth Rate for CC(=O)N1CCC(c2ccc(C(=O)NC(=N)N)cc2C(F)(F)F)CC1 [BI 9627] .
Solution: 0

Problem: Recall and state the measured Growth Rate for `CN([C@@H](Cc1ccc(OS(=O)(=O)c2cccc3cnccc23)cc1)C(=O)N1CCN(c2ccccc2)CC1)S(=O)(=O)c1cccc2cnccc12` .
Solution: 0

Problem: Recall and state the measured Growth Rate for C[C@@H]1CN(c2cc(-c3n[nH]c4ccc(OC5(C)CC5)cc34)ncn2)C[C@H](C)O1 [MLi-2] .
Solution: 0

Problem: Recall and state the measured Growth Rate for `NC(=O)c1cccc(-c2cc(Nc3ccc(OC(F)(F)F)cc3)ncn2)c1` .
Solution: 1

Problem: Recall and state the measured Growth Rate for C=C1/C(=C\C=C2/CCC[C@]3(C)[C@@H]([C@H](C)/C=C/[C@H](C)C(C)C)CC[C@@H]23)C[C@@H](O)C[C@@H]1O [DOXERCALCIFEROL] .
Solution: 0

Problem: Recall and state the measured Growth Rate for O=C1NCN(c2ccccc2)C12CCN(CC1COc3ccccc3O1)CC2 (stereo not given) [SPIROXATRINE] .
Solution: 0

Problem: Recall and state the measured Growth Rate for `COC1CCN(c2cccc(-c3cc(NC(C)=O)nc(-n4nc(C)cc4C)n3)n2)CC1` .
Solution: 0

Problem: Recall and state the measured Growth Rate for O=C(NOCC1CC1)c1ccc(F)c(F)c1Nc1ccc(I)cc1Cl [CI-1040] .
Solution: 1

Problem: Recall and state the measured Growth Rate for `NS(=O)(=O)c1c(Cl)ccc(NC(=O)Nc2cccc(Cl)c2Cl)c1O` .
Solution: 0

Problem: Recall and state the measured Growth Rate for `Cc1nnc2c3ccccc3c(N[C@@H](C)[C@H](c3ccccc3)N(C)C)nn12` .
Solution: 0

Problem: Recall and state the measured Growth Rate for O=C(Nc1nc2cccc(-c3ccc(CN4CCS(=O)(=O)CC4)cc3)n2n1)C1CC1 [FILGOTINIB] .
Solution: 0

Problem: Recall and state the measured Growth Rate for Cc1ccc2nc(CNCCCOc3ccccc3)cc(O)c2c1 [UCSF924] .
Solution: 1

Problem: Recall and state the measured Growth Rate for `Cc1c(C(=O)O)cc(-c2ccc(C3CCNCC3)cc2)c2ccc(-c3ccc(C(F)(F)F)cc3)cc12.Cl` .
Solution: 1

Problem: Recall and state the measured Growth Rate for OCCn1cc(-c2cnc3nnn(Cc4ccc5ncccc5c4)c3n2)cn1 [PF-04217903] .
Solution: 0

Problem: Recall and state the measured Growth Rate for `FC(F)(F)c1cccc(-c2noc(-c3cc(-c4ccccc4)c(C(F)(F)F)s3)n2)c1` .
Solution: 0

Problem: Recall and state the measured Growth Rate for Cn1nc(C(=O)NCc2ccc(C(=O)O)cc2)cc1-c1ccc2[nH]ccc2c1 [BI 4395] .
Solution: 0

Problem: Recall and state the measured Growth Rate for `CCCCCNC(=O)NS(=O)(=O)c1cc([N+](=O)[O-])ccc1NC1CCCCC1` .
Solution: 0

Problem: Recall and state the measured Growth Rate for `COc1cc(-c2cn(C)c(=O)c3cnccc23)c(OC)cc1CN(C)C` .
Solution: 1

Problem: Recall and state the measured Growth Rate for `COc1cc(OC)cc(-c2noc(N3CCN(C)C4(CCN(c5ccnc(C)c5)CC4)C3)n2)c1` .
Solution: 1

Problem: Recall and state the measured Growth Rate for `Cl.O=C(O)Cc1cccc(OCCCN(Cc2cccc(C(F)(F)F)c2Cl)CC(c2ccccc2)c2ccccc2)c1` .
Solution: 0
